pIC50 for UniProt:P35968 - collated from the literature.
Give bare numbers, as −log10 of the molar value.

smilesCode | assayTarget | pIC50
Cc1cccc(NC(=O)Nc2ccc(C#Cc3ccc4nc(NC(=O)C5CC5)cn4n3)cc2)c1 | UniProt:P35968 | 5.88
C=CC(=O)Nc1cc2c(Nc3ccc(Br)cc3F)ncnc2cc1OCCNC(=O)CSC | UniProt:P35968 | 6.20
Cc1cc(NC(=O)Nc2ccc(Cl)c(C(C)(F)F)c2)ccc1Oc1cc(NC(=O)C2CC2)ncn1 | UniProt:P35968 | 7.92
C=CC(=O)Nc1cc2c(Nc3ccc(Br)c(Cl)c3F)ncnc2cc1OCCNC(=O)CCOC | UniProt:P35968 | 6.56
O=C(Nc1ccc(Oc2ccnc(NC(=O)C3CC3)c2)c(F)c1)Nc1ccc(C(F)(F)F)cc1Cl | UniProt:P35968 | 8.11

Field: pIC50. Fill in for each record below.
1. O=C(NCCN1CCCC1)c1ccc(Nc2ncc(NC(=O)c3cc(NC(=O)c4cccc(C(F)(F)F)c4)ccc3Cl)cn2)cc1
2. C=CC(=O)Nc1cc2c(Nc3ccc(Br)cc3F)ncnc2cc1OCCN(C)C(C)=O
3. C=CC(=O)Nc1cc2c(Nc3ccc(Br)c(Cl)c3F)ncnc2cc1OCCNC(=S)NCC
4. CNCCN(c1cc(OC)cc(OC)c1)c1ccc2ncc(-c3ccc(NC(=O)OC(C)(C)C)nc3)nc2c1
5. O=C(Nc1ccc(Oc2ccnc(NC(=O)C3CC3)c2)c(F)c1)Nc1cc(C2CC2)ccc1F
6. COCCOc1cc2nccc(Oc3ccc(NC(=O)Nc4cccc(OC)c4)cc3)c2cc1C#N

Response:
1: 8.66; 2: 6.16; 3: 6.72; 4: 6.68; 5: 7.86; 6: 8.57

Field: pIC50. Fill in for each record below.
1. CC(C)(C)c1cc(NC(=O)Nc2ccc(Oc3ncnc4[nH]ncc34)cc2)n(-c2ccccc2)n1
2. Cn1cc(-c2cc(-c3cnc(N4CCN(Cc5ccc(S(C)(=O)=O)cc5)CC4)cn3)c3c(C#N)cnn3c2)cn1

Response:
1: 7.85; 2: 7.37

---

pIC50: −log10 of the molar value.
pIC50 for Vascular endothelial growth factor receptor 2 (Homo sapiens, UniProt P35968) - collated from the literature.

Field: pIC50. Fill in for each record below.
1. O=C(Nc1ccc(Oc2ccnc(NC(=O)C3CC3)c2)c(F)c1)Nc1ccc2[nH]cc(F)c2c1
2. Cn1cc(-c2cc(Oc3cccc(NC(=O)c4ccc(-n5ccnc5)cc4)c3)ccn2)cn1
3. Cc1cccc(Nc2nc3c(NCCCN4CCOCC4)nccn3n2)c1
4. O=C(Nc1cccc(Oc2cc(NC(=O)C3CC3)ncn2)c1)Nc1cccc(OC(F)(F)F)c1
5. COc1cc2nccc(Oc3ccc(NC(=O)c4cncc(-c5ccc(F)cc5)c4O)cc3F)c2nc1OC

Response:
1: 8.09; 2: < 5.00; 3: 4.30 to 5.52; 4: 7.94; 5: > 7.00

Field: pIC50. Fill in for each record below.
1. C=CNC(=O)NCCOc1cc2ncnc(Nc3ccc(Br)cc3F)c2cc1NC(=O)C=C
2. COc1cnc2[nH]cc(C(=O)c3c(F)ccc(NS(=O)(=O)C(F)(F)F)c3F)c2c1
3. CN1CCN(c2ccc(Nc3ncc(-c4cccc(OC5CCCC5)c4)o3)cc2Cl)CC1
4. CCOc1cc(-c2ccc(N3C[C@H]4C[C@@H](NC(=O)c5ncccc5Cl)C[C@H]4C3)nc2)c2c(C#N)cnn2c1
5. O=C1NCOc2cc3nccc(Oc4ccc(NC(=S)NC5CC5)c(Cl)c4)c3cc21
6. O=C(Nc1ccc(Oc2ccnc(NC(=O)C3CC3)c2)cc1F)Nc1cc(C(F)(F)F)ccc1F

Response:
1: 6.58; 2: ≥ 5.00; 3: > 6.00; 4: 7.30 to 8.00; 5: 6.00 to 6.70; 6: 8.08

Field: pIC50. Fill in for each record below.
1. COc1cccc(C(=O)c2c[nH]c3ncccc23)c1
2. COc1cc2nccc(Oc3ccc(Nc4c(NCc5ccccc5)c(=O)c4=O)c(Cl)c3)c2cc1C(N)=O
3. COc1cc2nccc(Oc3ccc(NC(=O)NCCCSC)c(F)c3)c2cc1C(N)=O
4. CC(C)C(O)C(=O)NC12CC3CC(C1)N(c1ccc(-c4cc(OCC(C)(C)O)cn5ncc(C#N)c45)cn1)C(C3)C2 (stereo not shown)

Response:
1: ≥ 5.00; 2: 6.00 to 6.70; 3: 8.66; 4: 7.30 to 8.00

Prompt: Find the measured pIC50: item `COc1cc2nccc(Oc3ccc(NC(=S)NC4CC4)c(Cl)c3)c2cc1NC(C)=O` , target or system Vascular endothelial growth factor receptor 2 (Homo sapiens, UniProt P35968).
Response: 6.70 to 7.30
